System: ABUTH
test-name: Post-emergence herbicidal action against ABUTH
Assay type: in vivo, Abutilon theophrasti
measurement-context: dosage 20 g/ha, visual assessment about 3 weeks after treatment vs untreated controls
// reported Post-emergence action against ABUTH in % for each item listed

CCNC(=O)c1c(C(F)(F)F)ccc(C(=O)Nc2nnco2)c1SC | 90%
CCc1c(C(=O)Nc2nnnn2CC)ccc(C(F)(F)F)c1C(=O)NCC(F)F | 80%
CCn1nnnc1NC(=O)c1ccc(C(F)(F)F)c(C(=O)NC(C)C2CC2)c1C (centres unmarked) | 80%

query: Which Post-emergence action against ABUTH in % reading was recorded for the compound CCc1c(C(=O)Nc2nnnn2CC)ccc(C(F)(F)F)c1C(=O)NC1CC1 ?
result: 90%

query: Which Post-emergence action against ABUTH in % reading was recorded for the compound CSc1c(C(=O)Nc2nnnn2C)ccc(C(F)F)c1C(=O)NCC1CC1 ?
result: 90%

###

// reported Pre-emergence action against AMARE in % for each item listed
Tested on: AMARE
test-name: Pre-emergence herbicidal action against AMARE
Type: in vivo, Amaranthus retroflexus
measurement-context: 20 g/ha, scored visually after 3 weeks vs untreated controls, 100% = plants have died, 0% = like control plants

Solved cases below.
Cc1nnc(NC(=O)c2ccc(C(F)F)c(C(=O)NCC3CC3)c2C)o1 [Example 6-34] | 100%
Cc1nnc(NC(=O)c2ccc(C(F)(F)F)c(C(=O)NC3CC3)c2Cl)o1 [Example 6-118] | 80%
CCn1nnnc1NC(=O)c1ccc(C(F)(F)F)c(C(=O)NC(C)C2CC2)c1Cl (stereo not shown) [Example 2-135] | 100%
Cc1nnc(NC(=O)c2ccc(C(F)F)c(C(=O)NC3CC3)c2C)o1 [Example 6-33] | 90%
CCn1nnnc1NC(=O)c1ccc(Br)c(C(=O)NCC2CC2)c1Cl [Example 2-180] | 100%
CCNC(=O)c1c(C(F)F)ccc(C(=O)Nc2nnc(C)o2)c1C [Example 6-32] | 80%

query: Which Pre-emergence action against AMARE in % reading was recorded for the compound CCNC(=O)c1c(C(F)F)ccc(C(=O)Nc2nnnn2CC)c1SC [Example 2-88] ?
result: 100%

query: Which Pre-emergence action against AMARE in % reading was recorded for the compound CCCNC(=O)c1c(C(F)F)ccc(C(=O)Nc2nnc(C)o2)c1Cl [Example 6-259] ?
result: 100%

query: Which Pre-emergence action against AMARE in % reading was recorded for the compound CCNC(=O)c1c(C(F)(F)F)ccc(C(=O)Nc2nnco2)c1Cl [Example 5-117] ?
result: 90%

###

Test system: DIGSA
test-name: Post-emergence herbicidal action against DIGSA
Assay type: in vivo, Digitaria sanguinalis
measurement-context: Digitaria sanguinalis, 504 h, 20 g/ha
measured-attribute: pest or weed control at 20 g/ha (%)
Express your answer in %, writing the number without its unit.

Solved cases below.
CCNC(=O)c1c(C(F)(F)F)ccc(C(=O)Nc2nnnn2C)c1Cl | 90
CCc1c(C(=O)Nc2nnnn2CC)ccc(C(F)F)c1C(=O)NC1CC1 | 90
CCc1c(C(=O)Nc2nnnn2C)ccc(C(F)F)c1C(=O)NC | 90

query: Lookup: pest or weed control at 20 g/ha / DIGSA / CCn1nnnc1NC(=O)c1ccc(C(F)F)c(C(=O)NC)c1Cl
result: 90

query: Lookup: pest or weed control at 20 g/ha / DIGSA / CCNC(=O)c1c(C(F)(F)F)ccc(C(=O)Nc2nnc(C)o2)c1Cl
result: 80

###

Tested on: ECHCG
test-name: Pre-emergence herbicidal action against ECHCG
Format: in vivo, Echinochloa crus-galli
measurement-context: Echinochloa crus-galli, 504 h, 80 g/ha
measured-attribute: pest or weed control at 80 g/ha (%)
Express your answer in %, writing the number without its unit.

CCn1nnnc1NC(=O)c1ccc(C(F)(F)F)c(C(N)=O)c1Cl | 90
CCCNC(=O)c1c(C(F)(F)F)ccc(C(=O)Nc2nnnn2CC)c1C | 100
Cn1nnnc1NC(=O)c1ccc(C(F)F)c(C(=O)NC2CC2)c1Br | 90
Cc1nnc(NC(=O)c2ccc(C(F)(F)F)c(C(=O)NC(C)C)c2C)o1 | 100
CCNC(=O)c1c(C(F)(F)F)ccc(C(=O)Nc2nnnn2CC)c1C | 100

Now turn to the next molecule.
query: Lookup: pest or weed control at 80 g/ha / ECHCG / Cn1nnnc1NC(=O)c1ccc(C(F)(F)F)c(C(=O)NC2CC2)c1C1CC1
result: 100

###

System: HORMU
test-name: Pre-emergence herbicidal action against HORMU
Assay type: in vivo, Hordeum murinum
measurement-context: Hordeum murinum, 504 h; 80 g/ha, pre-emergence
// reported pest or weed control at 80 g/ha for each item listed
Express your answer in %, writing the number without its unit.

Solved cases below.
CNC(=O)c1c(C(F)F)ccc(C(=O)Nc2nnnn2C)c1Cl | 90
CCNC(=O)c1c(C(F)(F)F)ccc(C(=O)Nc2nnnn2CC)c1Cl | 100
CCNC(=O)c1c(C(F)F)ccc(C(=O)Nc2nnnn2C)c1Cl | 90

query: Which pest or weed control at 80 g/ha reading was recorded for the molecule CCNC(=O)c1c(C(F)(F)F)ccc(C(=O)Nc2nnnn2C)c1Cl ?
result: 90

query: Which pest or weed control at 80 g/ha reading was recorded for the molecule Cn1nnnc1NC(=O)c1ccc(C(F)(F)F)c(C(=O)NC2CC2)c1Br ?
result: 80

###

// reported Post-emergence action against VIOTR in % for each item listed
Test system: VIOTR
test-name: Post-emergence herbicidal action against VIOTR
Format: in vivo, Viola tricolor
measurement-context: 20 g/ha
Express your answer in %, writing the number without its unit.

Solved cases below.
CCNC(=O)c1c(C(F)(F)F)ccc(C(=O)Nc2nnnn2CC)c1CC | 80
Cn1nnnc1NC(=O)c1ccc(C(F)(F)F)c(C(=O)NCC2CC2)c1C1CC1 | 90
CC(NC(=O)c1c(Br)ccc(C(=O)Nc2nnnn2C)c1Cl)C1CC1 (stereo not shown) | 90

Now turn to the next compound.
query: Which Post-emergence action against VIOTR in % reading was recorded for the compound CCCn1nnnc1NC(=O)c1ccc(S(C)(=O)=O)c(C(=O)NC2CC2)c1Cl ?
result: 80

###

// reported Post-emergence action against ABUTH in % for each item listed
Tested on: ABUTH
test-name: Post-emergence herbicidal action against ABUTH
Type: in vivo, Abutilon theophrasti
measurement-context: dosage 5 g/ha, visual assessment about 3 weeks after treatment vs untreated controls
Express your answer in %, writing the number without its unit.

Solved cases below.
CCNC(=O)c1c(C(F)F)ccc(C(=O)Nc2nnnn2CC)c1SC | 90
CCCn1nnnc1NC(=O)c1ccc(C(F)(F)F)c(C(=O)NC(C)=O)c1Cl | 80
Cc1c(C(=O)Nc2nnnn2C)ccc(C(F)(F)F)c1C(=O)NCC(F)F | 80
CCn1nnnc1NC(=O)c1ccc(C(F)F)c(C(=O)NC)c1OC | 80
Cn1nnnc1NC(=O)c1ccc(C(F)(F)F)c(C(=O)NCC(F)F)c1C1CC1 | 80

query: Which Post-emergence action against ABUTH in % reading was recorded for the compound CNC(=O)c1c(C(F)F)ccc(C(=O)Nc2nnco2)c1Cl ?
result: 80

###

Tested on: ECHCG
test-name: Post-emergence herbicidal action against ECHCG
Assay type: in vivo, Echinochloa crus-galli
measurement-context: dosage 20 g/ha
// reported Post-emergence action against ECHCG in % for each item listed
Express your answer in %, writing the number without its unit.

Solved cases below.
CCn1nnnc1NC(=O)c1ccc(C(F)(F)F)c(C(=O)NCC2CCCO2)c1Cl (stereo not drawn) | 80
CCc1c(C(=O)Nc2nnnn2CC)ccc(C(F)(F)F)c1C(=O)NC1CC1 | 90
CCn1nnnc1NC(=O)c1ccc(C(F)(F)F)c(C(=O)NCC(F)F)c1Cl | 90

Now turn to the next compound.
query: Which Post-emergence action against ECHCG in % reading was recorded for the compound CCn1nnnc1NC(=O)c1ccc(C(F)(F)F)c(C(=O)NCC2CC2)c1Cl ?
result: 90

###

Tested on: AVEFA
test-name: Post-emergence herbicidal action against AVEFA
Type: in vivo, Avena fatua
measurement-context: Avena fatua, 504 h, 20 g/ha, visual assessment about 3 weeks after treatment, 100% = plants have died, 0% = like control plants
// reported pest or weed control at 20 g/ha for each item listed
Express your answer in %, writing the number without its unit.

Solved cases below.
CCNC(=O)c1c(C(F)(F)F)ccc(C(=O)Nc2nnnn2C)c1Br | 90
CCCNC(=O)c1c(C(F)(F)F)ccc(C(=O)Nc2nnnn2CC)c1C | 100
CCn1nnnc1NC(=O)c1ccc(C(F)(F)F)c(C(=O)NC2CC2)c1C | 100
CCn1nnnc1NC(=O)c1ccc(C(F)F)c(C(=O)NC(C)C)c1C | 80
CCNC(=O)c1c(C(F)F)ccc(C(=O)Nc2nnnn2C)c1Br | 80

query: Lookup: pest or weed control at 20 g/ha / AVEFA / CCNC(=O)c1c(C(F)(F)F)ccc(C(=O)Nc2nnnn2CC)c1Br
result: 90

query: Lookup: pest or weed control at 20 g/ha / AVEFA / CNC(=O)c1c(Cl)ccc(C(=O)Nc2nnnn2C)c1C
result: 80

query: Lookup: pest or weed control at 20 g/ha / AVEFA / Cn1nnnc1NC(=O)c1ccc(Cl)c(C(=O)NC2CC2)c1Cl
result: 100

query: Lookup: pest or weed control at 20 g/ha / AVEFA / CCNC(=O)c1c(C(F)(F)F)ccc(C(=O)Nc2nnnn2CC)c1SC
result: 90
